Assay: SBL liposome formation, diameter and PDI in various salts
Type: physicochemical
Conditions: 150 mM NaI (24 h)
Procedure: The five SBLs were first examined for their ability to make vesicles under standard buffer conditions (10 mM HEPES, 140 mM NaCl, pH 7.4). […] Liposome preparations were made at 26 mM lipid in 10 mM HEPES buffer, pH 7.4 with the specified salt concentration. All preparations were rehydrated and sonicated at 80° C. for 7 minutes, allowed to cool for 5 minutes and then measured. Liposome diameters were measured both five minutes after sonication and at 24 hours. […]
REPORTED_ENDPOINT: Liposome diameter (nm)

# COMPOUND, Liposome diameter (nm)
measured = [
    ("CCCCCCCCCCCCCC(=O)OCC(C[N+](C)(C)CCCS(=O)(=O)[O-])OC(=O)CCCCCCCCCCCCC (centres unmarked)", 38.69),
]

A: CCCCCCCC/C=C\CCCCCCCC(=O)OCC(C[N+](C)(C)CCCS(=O)(=O)[O-])OC(=O)CCCCCCC/C=C\CCCCCCCC (centres unmarked)
B: CCCCCCCCCCCC(=O)OCC(C[N+](C)(C)CCCS(=O)(=O)[O-])OC(=O)CCCCCCCCCCC (centres unmarked)
Exercise: Hello, I am sorting some records. Could you say if A or B has the smaller Liposome diameter (nm) value? Use the label to indicate which entry you chose.
Solution: B
(B: 39.24 nm, A: 99.24 nm)

----------
assay: SBL liposome formation, diameter and PDI in various salts; format: physicochemical; settings: 150 mM NaClO4, five minutes after sonication
REPORTED_ENDPOINT: Liposome diameter (nm)

I: CCCCCCCCCCCCCC(=O)OCC(C[N+](C)(C)CCCS(=O)(=O)[O-])OC(=O)CCCCCCCCCCCCC (centres unmarked)
II: CCCCCCCC/C=C\CCCCCCCC(=O)OCC(C[N+](C)(C)CCCS(=O)(=O)[O-])OC(=O)CCCCCCC/C=C\CCCCCCCC (centres unmarked)
Exercise: Dear colleague, could you let me know whether I or II has the lower recorded Liposome diameter (nm)? Thanks. // respond with label for picked entry
Solution: I
(I: 41.76 nm, II: 67.7 nm)

----------
assay: SBL liposome formation, diameter and PDI in various salts; assay type: physicochemical; details: 500 mM NaCl, 26 mM lipid, 10 mM HEPES pH 7.4
REPORTED_ENDPOINT: PDI

Below, each entry is followed by its recorded PDI result.
# COMPOUND, REPORTED_MEASUREMENT
records = [
    ("CCCCCCCCCCCC(=O)OCC(C[N+](C)(C)CCCS(=O)(=O)[O-])OC(=O)CCCCCCCCCCC (centres unmarked)", 0.296),
    ("CCCCCCCCCCCCCCCCCC(=O)OCC(C[N+](C)(C)CCCS(=O)(=O)[O-])OC(=O)CCCCCCCCCCCCCCCCC (centres unmarked)", 0.285),
    ("CCCCCCCC/C=C\\CCCCCCCC(=O)OCC(C[N+](C)(C)CCCS(=O)(=O)[O-])OC(=O)CCCCCCC/C=C\\CCCCCCCC (centres unmarked)", 0.197),
]

P: CCCCCCCCCCCCCCCC(=O)OCC(C[N+](C)(C)CCCS(=O)(=O)[O-])OC(=O)CCCCCCCCCCCCCCC (centres unmarked)
Q: CCCCCCCCCCCCCC(=O)OCC(C[N+](C)(C)CCCS(=O)(=O)[O-])OC(=O)CCCCCCCCCCCCC (centres unmarked)
Exercise: Param metric = PDI; output whichever of P , Q has the minimum value. Your answer should be the label attached to the chosen record.
Solution: P
(P: 0.253, Q: 0.385)

Numbers sourced from patent US8956646B2.
